The reported numbers originate from PubChem BioAssay.

# protocol.notes: S. cerevisiae RM11-1a growth modifiers, primary screen, strain RM11-1a, OD600, basal, 24 h (AID 1177);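 further: cultures grown under basal conditions with no added stressor; test concentration not given here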
# applied.conditions: OD600, 24 h, higher = more signal, called active from +8 up or from −8 down
Binary call on z-score: criterion met from -0.2 upward, criterion not met beneath that.

Answered cases to consult:
compound | class
C=CCC1(CC=C)C[C@H]2CO[C@H](c3ccc(OC)cc3)N2C1=O | criterion met
CC(C)N1CC=CC23O[C@@H]4/C=C\CCCOC(=O)C4[C@H]2C(=O)N(CCCO)[C@@H]3C1=O (stereo partly drawn) | criterion met
CC(C)C(CO)N1C(=O)[C@@H]2[C@H]3C(=O)OCC=C[C@H]3OC23C=CCN(Cc2ccccc2)C(=O)[C@@H]13 (stereo partly drawn) | criterion not met
CO[C@H]1O[C@H](CO)[C@@H](OC(=O)Nc2ccccc2)[C@H](OC(=O)Nc2ccccc2-c2ccccc2)[C@@H]1OC(=O)Nc1ccccc1-c1ccccc1 | criterion met
O=C(NO)[C@]1(Cc2ccccc2)N=C(c2ccc(OCCCO)cc2)O[C@@H]1c1ccccc1 | criterion not met
COc1ccc(C#Cc2ccc3c(c2)[C@]2(C(=O)N3)[C@H](c3ccc(O)cc3)N3[C@H](c4ccccc4)[C@H](c4ccccc4)OC(=O)[C@H]3[C@@H]2C(N)=O)cc1 | criterion met

In the following, a different compound is considered.
Quick check: does CC(=O)OC(C/C=C\B1OC(C)(C)C(C)(C)O1)c1ccccc1 (stereo not drawn) have z-score greater than or equal to -0.2?
criterion not met

====

Recorded z-score for the following compounds
# protocol.notes: S. cerevisiae RM11-1a growth modifiers, primary screen, strain RM11-1a, OD600, basal, 24 h (AID 1177);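 further: cultures grown under basal conditions with no added stressor; test concentration not given here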
# applied.conditions: OD600, 24 h, higher = more signal, called active from +8 up or from −8 down
I only need the number, thanks.

// known answers, use as guide
compound | z-score
CC(C)(C)OC(=O)CC[C@]1(C(=O)NCc2ccccc2)COC(c2ccc(OCCCO)cc2)=N1 | -1.23
C=CCN1C(=O)[C@@]2(O[C@@H](CCO)[C@H]([Si](C)(C)c3ccc(OC)cc3)[C@H]2C)c2cc(N(C=O)c3ccccc3)ccc21 | -0.592
C=CCC(OC(C)=O)[C@@H]1[C@@H](N(Cc2cccc3ccccc23)C(=O)Cc2ccc(OC)cc2)c2cc(OCCCO)ccc2N1C(=O)Cc1ccc(OC)cc1 (some centres undefined) | -0.27

Consider the additional compound presented here.
Given `C=CC[C@]1(C(=O)N2CCCCC2)COC(c2ccc(OCCCO)cc2)=N1` , respond with its z-score.
0.474

====

# protocol.notes: basal RPMI8226 mitochondrial membrane potential changes, profiling panel, cell-based, JC-1 fluorescence, 24 h, 100 nL compound (AID 1169); further: test concentration not given here
# applied.conditions: RPMI8226 myeloma, JC-1 mitochondrial potential fluorescence, higher = more signal
experimental.readout: z-score
Field format: numeric only.

Guide cases for z-score, answers given:
molecule | measured
CC(C)(C)OC(=O)CC[C@@]12N=C(c3ccc(OCCCO)cc3)O[C@@H]1c1ccccc1N(Cc1ccccc1)C2=O | -0.778
CO[C@H]1O[C@H](CO)[C@@H](OC(=O)CCc2ccccc2)[C@@H]2OC(=O)[C@H](Cc3ccccc3)C/C=C/C[C@@H](Cc3ccccc3)C(=O)O[C@@H]12 | 0.12
COc1ccc([Si](C)(C)[C@H]2[C@H](CC(=O)N(CCO)Cc3ccccc3)O[C@@]3(C(=O)N(Cc4ccc(N5CCC5=O)cc4)c4ccccc43)[C@@H]2C)cc1 | -0.995

Next item in the queue.
Return z-score (reported value) for this molecule: `CCOC(=O)C[C@H]1[C@H](OC(=O)Cc2ccc3c(c2)OCO3)[C@@H](NC(=O)c2ccc3ccccc3c2)c2cc(OCCCO)ccc2N1C(=O)c1ccc2ccccc2n1`
0.319
